These entries and their values trace back to patent US20170240556A1.

Test system: CLS439 (bladder)
experimentDescription: Proliferation Assay
Type: cell-based
conditions: 72 h, read-out: IC50 inhibition of cell growth
assayReadout: IC50

What measured IC50 goes with COc1cccc(C(=O)Nc2nc3cc4c(cc3[nH]2)OC(F)(F)O4)c1 [Compound 56] ? ≤ 1000 nM

----------
Tested on: IGROV1 (ovary)
experimentDescription: Proliferation Assay
Format: cell-based
conditions: Homo sapiens, IGROV-1, 72 h, read-out: IC50 inhibition of cell growth
assayReadout: IC50

What measured IC50 goes with COc1cccc(C(=O)Nc2nc3cc4c(cc3[nH]2)OC(F)(F)O4)c1 [Compound 56] ? ≤ 1000 nM

----------
compounds and their reported IC50
assayedSystem: Casein kinase 1 delta (CSKN1D) (Homo sapiens)
experimentDescription: Casein kinase assay, CK1 delta
conditions: recombinant CSKN1D 5 nM, ATP 10 μM

Known results for compounds:
CC(C)c1nc(-c2cccc(C(=O)Nc3nc4cc5c(cc4[nH]3)OC(F)(F)O5)c2)no1 | < 200 nM
CC(=O)c1cccc(C(=O)Nc2nc3cc4c(cc3[nH]2)OC(F)(F)O4)c1 | < 200 nM
O=C(Nc1nc2cc3c(cc2[nH]1)OC(F)(F)O3)c1cnccn1 | > 1000 nM
O=C(Nc1nc2cc3c(cc2[nH]1)OC(F)(F)O3)c1csc(-c2cccc(Cl)c2Cl)n1 | > 1000 nM
O=C(Nc1nc2cc3c(cc2[nH]1)OC(F)(F)O3)c1csc(-c2cscn2)n1 | < 200 nM
CC(C)(C)c1nc(-c2cccc(C(=O)Nc3nc4cc5c(cc4[nH]3)OC(F)(F)O5)c2)no1 | < 200 nM
O=C(Nc1nc2cc3c(cc2[nH]1)OC(F)(F)O3)c1csc(N2CCOCC2)n1 | < 200 nM

Now for a further compound.
What measured IC50 goes with `O=C(Nc1n[nH]c(C(=O)Nc2nc3cc4c(cc3[nH]2)OC(F)(F)O4)n1)c1ccc([N+](=O)[O-])cc1` ? > 1000 nM

----------
Tested on: SKMEL5 (skin)
experimentDescription: Proliferation Assay
Type: cell-based
conditions: Homo sapiens, SK-MEL-5, 72 h, SKMELS (skin), read-out: IC50 inhibition of cell growth
assayReadout: IC50

API: value(readout=IC50, system=SKMEL5 (skin)) for record `COc1cccc(C(=O)Nc2nc3cc4c(cc3[nH]2)OC(F)(F)O4)c1` ≤ 100 nM

----------
assayedSystem: Casein kinase 1 delta (CSKN1D) (Homo sapiens)
experimentDescription: Casein kinase assay, CK1 delta
conditions: recombinant CSKN1D 5 nM, ATP 10 μM
pIC50: −log10 of the molar value.
assayReadout: pIC50

Known results for compounds:
O=C(Nc1nc2cc3c(cc2[nH]1)OC(F)(F)O3)c1ccc(-n2cnnn2)cc1 [Compound 22B] | > 6.70
Cc1nnsc1-c1nc(C(=O)Nc2nc3cc4c(cc3[nH]2)OC(F)(F)O4)cs1 [Compound 134] | > 6.70
O=C(Nc1nc2cc3c(cc2[nH]1)OC(F)(F)O3)c1cocn1 [Compound 35] | 6.00 to 6.70
O=C(Nc1nc(C(=O)Nc2nc3cc4c(cc3[nH]2)OC(F)(F)O4)ns1)c1ccsc1 [Compound 10B] | > 6.70
O=C(Nc1nc2cc3c(cc2[nH]1)OC(F)(F)O3)c1ccc(Cl)cc1Cl [Compound 43] | 6.00 to 6.70

What measured pIC50 goes with NS(=O)(=O)c1cc(C(=O)Nc2nc3cc4c(cc3[nH]2)OC(F)(F)O4)cs1 [Compound 83] ? > 6.70

What measured pIC50 goes with Nc1cccc(C(=O)Nc2nc3cc4c(cc3[nH]2)OC(F)(F)O4)c1 [Compound 87] ? > 6.70

What measured pIC50 goes with O=C(Nc1nc2cc3c(cc2[nH]1)OC(F)(F)O3)c1coc(NC(=O)c2ccco2)n1 [Compound 10] ? 6.00 to 6.70

What measured pIC50 goes with O=C(Nc1nc2cc3c(cc2[nH]1)OC(F)(F)O3)c1cccc(-c2ncc[nH]2)c1 [Compound 140] ? > 6.70

What measured pIC50 goes with Nc1ccc(C(=O)Nc2nc3cc4c(cc3[nH]2)OC(F)(F)O4)cn1 [Compound 110] ? 6.00 to 6.70

----------
Tested on: PLCPRFS (liver)
experimentDescription: Proliferation Assay
Assay type: cell-based
conditions: 72 h, read-out: IC50 inhibition of cell growth
assayReadout: IC50

What measured IC50 goes with `COc1cccc(C(=O)Nc2nc3cc4c(cc3[nH]2)OC(F)(F)O4)c1` ? ≤ 1000 nM

----------
Test system: CAKI1 (kidney)
experimentDescription: Proliferation Assay
Assay type: cell-based
conditions: Homo sapiens, CAKI-1, 72 h, read-out: IC50 inhibition of cell growth
pIC50: −log10 of the molar value.
assayReadout: pIC50

API: value(readout=pIC50, system=CAKI1 (kidney)) for record `COc1cccc(C(=O)Nc2nc3cc4c(cc3[nH]2)OC(F)(F)O4)c1` ≥ 6.00

----------
System: JIMT1 (breast)
experimentDescription: Proliferation Assay
Assay type: cell-based
conditions: Homo sapiens, JIMT-1, 72 h, read-out: IC50 inhibition of cell growth
Description: For the determination of the inhibitory capacity of compounds of the present invention (in the following: “test compound(s)”) on cell growth, cancer cells were seeded into microtitre plates, treated with different concentrations of test compound or left untreated, and after 72 h the protein content was determined as an equivalent for the cell number. Test compounds were dissolved in 100% DMSO and predilutions in cell culture medium were prepared with a final concentration of 0.1% DMSO in medium. […]
assayReadout: IC50

What measured IC50 goes with `COc1cccc(C(=O)Nc2nc3cc4c(cc3[nH]2)OC(F)(F)O4)c1` ? ≤ 1 µM

----------
assayedSystem: Casein kinase 1 delta (CSKN1D) (Homo sapiens, UniProt P48730)
Sequence (P48730 whole entry): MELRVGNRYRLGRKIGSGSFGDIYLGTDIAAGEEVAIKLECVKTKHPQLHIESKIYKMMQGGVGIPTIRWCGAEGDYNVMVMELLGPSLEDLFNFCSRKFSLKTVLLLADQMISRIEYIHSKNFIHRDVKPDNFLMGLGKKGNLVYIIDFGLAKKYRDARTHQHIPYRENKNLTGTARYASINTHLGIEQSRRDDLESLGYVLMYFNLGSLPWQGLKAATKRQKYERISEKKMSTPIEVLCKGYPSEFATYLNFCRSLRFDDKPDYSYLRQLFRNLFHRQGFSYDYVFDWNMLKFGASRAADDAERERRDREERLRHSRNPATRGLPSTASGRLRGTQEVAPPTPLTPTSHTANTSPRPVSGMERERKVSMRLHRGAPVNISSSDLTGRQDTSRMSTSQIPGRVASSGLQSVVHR
experimentDescription: Casein kinase assay, CK1 delta
conditions: recombinant CSKN1D 5 nM, ATP 10 μM
pIC50: −log10 of the molar value.
compounds and their reported pIC50

Known results for compounds:
Cc1nn(-c2ccc(Cl)c(Cl)c2)c(C)c1C(=O)Nc1nc2cc3c(cc2[nH]1)OC(F)(F)O3 [Compound 14] | < 6.00
O=C(Nc1nc2cc3c(cc2[nH]1)OC(F)(F)O3)c1cccc(-c2noc(C3CC3)n2)c1 [Compound 147] | > 6.70
NS(=O)(=O)c1c[nH]c(C(=O)Nc2nc3cc4c(cc3[nH]2)OC(F)(F)O4)c1 [Compound 101] | > 6.70
O=C(Nc1nc2cc3c(cc2[nH]1)OC(F)(F)O3)c1ncn[nH]1 [Compound 84] | < 6.00
O=C(Nc1nc2cc3c(cc2[nH]1)OC(F)(F)O3)c1csc(-c2ccc3c(c2)CCO3)c1 [Compound 38] | > 6.70
O=C(Nc1nc2cc3c(cc2[nH]1)OC(F)(F)O3)c1csc(-c2ccco2)n1 [Compound 6B] | > 6.70
O=C(Nc1nc2cc3c(cc2[nH]1)OC(F)(F)O3)c1cccc([N+](=O)[O-])c1 [Compound 65] | > 6.70
O=C(Nc1nc2cc3c(cc2[nH]1)OC(F)(F)O3)c1ccc(-n2cccn2)cc1 [Compound 142] | > 6.70

API: value(readout=pIC50, system=Casein kinase 1 delta (CSKN1D) (Homo sapiens, UniProt P48730)) for record O=C(Nc1nc2cc3c(cc2[nH]1)OC(F)(F)O3)c1nc(NC(=O)c2ccccc2OC(F)(F)F)n[nH]1 [Compound 52] > 6.70

API: value(readout=pIC50, system=Casein kinase 1 delta (CSKN1D) (Homo sapiens, UniProt P48730)) for record O=C(Nc1nc2cc3c(cc2[nH]1)OC(F)(F)O3)c1csc(-c2cccc(F)c2)n1 [Compound 12B] > 6.70

API: value(readout=pIC50, system=Casein kinase 1 delta (CSKN1D) (Homo sapiens, UniProt P48730)) for record Cn1cc(C(=O)Nc2nc3cc4c(cc3[nH]2)OC(F)(F)O4)cn1 [Compound 13B] > 6.70

API: value(readout=pIC50, system=Casein kinase 1 delta (CSKN1D) (Homo sapiens, UniProt P48730)) for record Cn1cccc1C(=O)Nc1nc2cc3c(cc2[nH]1)OC(F)(F)O3 [Compound 20B] 6.00 to 6.70

API: value(readout=pIC50, system=Casein kinase 1 delta (CSKN1D) (Homo sapiens, UniProt P48730)) for record Cc1nn(C)cc1-c1cc(C(=O)Nc2nc3cc4c(cc3[nH]2)OC(F)(F)O4)no1 [Compound 144] > 6.70

API: value(readout=pIC50, system=Casein kinase 1 delta (CSKN1D) (Homo sapiens, UniProt P48730)) for record O=C(Nc1nc2cc3c(cc2[nH]1)OC(F)(F)O3)c1csc(NC(=O)c2ccco2)n1 [Compound 11] > 6.70

API: value(readout=pIC50, system=Casein kinase 1 delta (CSKN1D) (Homo sapiens, UniProt P48730)) for record Nc1ccc(C(=O)Nc2nc3cc4c(cc3[nH]2)OC(F)(F)O4)cc1C(F)(F)F [Compound 126] > 6.70

API: value(readout=pIC50, system=Casein kinase 1 delta (CSKN1D) (Homo sapiens, UniProt P48730)) for record Cc1nnnn1-c1cccc(C(=O)Nc2nc3cc4c(cc3[nH]2)OC(F)(F)O4)c1 [Compound 148] > 6.70

API: value(readout=pIC50, system=Casein kinase 1 delta (CSKN1D) (Homo sapiens, UniProt P48730)) for record O=C(Nc1nc2cc3c(cc2[nH]1)OC(F)(F)O3)c1ccno1 [Compound 72] 6.00 to 6.70

API: value(readout=pIC50, system=Casein kinase 1 delta (CSKN1D) (Homo sapiens, UniProt P48730)) for record O=C(Nc1nc2cc3c(cc2[nH]1)OC(F)(F)O3)c1ccc2ccccc2n1 [Compound 59] < 6.00
